Test system: NCI-H1944
experiment: normalised cell viability (NPI; 0 = phenylarsine oxide control, 1 = DMSO control) (fraction of DMSO control); higher = more viable cells (less compound toxicity)
experimental.conditions: glucocorticoid arm: hydrocortisone 2.75 uM pre-treated 2 days and continued; compound 1 µM; 6 days
Where a name gives a salt, the structure may show the parent alone. Over roughly 1,900 compounds, “normalised cell viability (NPI; 0 = phenylarsine oxide control, 1 = DMSO control)” has its median near 1; the lowest 2% begin near 0.039. The entries come from a sample that favours the lowest values as a whole.
Hi there, I'd appreciate the recorded normalised cell viability for every entry that follows.
// return just the number, without any unit appended

What value of normalised cell viability has been recorded for this entry: NC(=S)c1ccc[n+]([C@@H]2O[C@@H](COP(=O)([O-])OP(=O)(O)OC[C@H]3O[C@@H](n4cnc5c(N)ncnc54)C(OP(=O)(O)O)[C@H]3O)C(O)C2O)c1 (stereo partly drawn) [Thio-NADP sodium] 1.03

// query: Ic1ccc(N2CCN(Cc3c[nH]c4ncccc34)CC2)cc1 [L-750,667 trihydrochloride] 0.99

// query: `CC(C)C[C@H](NC(=O)CNC(=O)c1cc(Cl)ccc1Cl)B(O)O` 1.04

// query: CN(C)CCC(c1ccc(Br)cc1)c1ccccn1 (racemic) [(±)-Brompheniramine maleate] 1.01

// query: `CCc1cnn2c(NCc3ccc[n+]([O-])c3)cc(N3CCCC[C@H]3CCO)nc12` 0.144

// query: `Cc1ccc(-n2nc(C(C)(C)C)cc2NC(=O)Nc2ccc(OCCN3CCOCC3)c3ccccc23)cc1` 0.775

// query: `NC(=O)Nc1cc(-c2cccc(F)c2)sc1C(=O)N[C@H]1CCCNC1` 0.93

// query: `CC(C)c1ccccc1Cc1cc(C(=O)Nc2ccc(S(=O)(=O)c3ccccc3C(C)(C)C)cc2)c(O)c(O)c1O` 0.998

###

System: NCI-H1944
experiment: normalised cell viability (NPI; 0 = phenylarsine oxide control, 1 = DMSO control) (fraction of DMSO control); higher = more viable cells (less compound toxicity)
experimental.conditions: glucocorticoid arm: vehicle; compound 5 µM; 6 days
Where a name gives a salt, the structure may show the parent alone. Whole data set: some 1,900 compounds, median “normalised cell viability (NPI; 0 = phenylarsine oxide control, 1 = DMSO control)” near 1, cut for the lowest 2% near 0.039. The full list was thinned out, with the lowest values kept by preference.
Hi there, I'd appreciate the recorded normalised cell viability for every entry that follows.
// return just the number, without any unit appended

NCI-H1944 / normalised cell viability / Nc1ncn([C@@H]2O[C@H](CO)[C@@H](O)[C@H]2O)c(=O)n1 [Azacitidine] : value? 0.903

// query: Cc1ccccc1/C=C/C1=NCCN1 [Metrazoline oxalate] 1

// query: Nc1ccn([C@@H]2O[C@H](CO)[C@@H](O)[C@@H]2O)c(=O)n1 [Cytosine-1-beta-D-arabinofuranoside hydrochloride] 0.0638

###

Test system: NCI-H1944;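 further: CTB read-out in 384-well plates, triplicate wells, NPI normalised per plate against 1 µM phenylarsine oxide (0) and 0.1% DMSO (1) controls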
experiment: normalised cell viability (NPI; 0 = phenylarsine oxide control, 1 = DMSO control) (fraction of DMSO control); NCI-H1944 is a non-small cell lung cancer line; higher = more viable cells (less compound toxicity)
experimental.conditions: glucocorticoid arm: hydrocortisone 2.75 uM co-treatment; compound 5 µM; 6 days
Where a name gives a salt, the structure may show the parent alone. Whole data set: some 1,900 compounds, median “normalised cell viability (NPI; 0 = phenylarsine oxide control, 1 = DMSO control)” near 1, cut for the lowest 2% near 0.039. Only a selection was taken, and the lowest values are over-represented in it overall.
test.readout: normalised cell viability
// return just the number, without any unit appended

What value of normalised cell viability has been recorded for this entry: `CC(C)(C)c1cnc(CSc2cnc(NC(=O)C3CCNCC3)s2)o1` 0.036

// query: CN1CCC[C@@H]1Cc1c[nH]c2ccc(CCS(=O)(=O)c3ccccc3)cc12 [Eletriptan HBr] 1.03

// query: `NC[C@@H]1O[C@H](C23CC4CC(CC(C4)C2)C3)Cc2c1ccc(O)c2O` 0.0562

// query: `Cn1ncnc1[C@H]1c2n[nH]c(=O)c3cc(F)cc(c23)N[C@@H]1c1ccc(F)cc1` 0.934

// query: N/C(=N\C(=O)c1nc(Cl)c(N)nc1N)NCc1ccc(Cl)c(Cl)c1 [3',4'-Dichlorobenzamil hydrochloride] 0.0646

// query: C=CCN1CCc2c(cc(O)c(O)c2Br)[C@@H](c2ccccc2)C1 [R(+)-6-Bromo-APB hydrobromide] 1.01

// query: `CN1CCN(S(=O)(=O)c2ccc(-c3cnc(N)c(C(=O)Nc4cccnc4)n3)cc2)CC1` 1.2

// query: NC[C@@H](O)c1ccc(O)c(O)c1 [L(-)-Norepinephrine bitartrate] 0.971

// query: `CC(C)[C@H](NC(=O)OCc1ccccc1)C(=O)N[C@H](C=O)Cc1ccccc1` 0.987

// query: Oc1cc2c(cc1O)C(c1ccccc1)CNCC2 (racemic) 0.982

// query: `COCC[n+]1c2c(n(Cc3cnccn3)c1C)C(=O)c1ccccc1C2=O` 0.00188

// query: COC1=C(OC)C(=O)c2ccccc2C1=O [2,3-Dimethoxy-1,4-naphthoquinone] 0.905

// query: `N=C1Sc2ccccc2C2=NCCCN12` 1.01

// query: O=C(O)[C@H]1C[C@H](C(=O)O)N1 (relative stereo) [trans-Azetidine-2,4-dicarboxylic acid] 1.01

// query: `c1cncc(CN2CCC(n3ncc4c(N5CCOCC5)nc(-c5ccc6[nH]ccc6c5)nc43)CC2)c1` 0.532

// query: NC(C(=O)O)C(O)C(=O)O (racemic) [DL-threo-beta-hydroxyaspartic acid] 1.01

// query: CCCCCCCCCCCCCCCCCCOCC(COP(=O)([O-])OCC[N+](C)(C)C)OC (stereo not given) 0.993

// query: O=c1[nH]c2cc(Cl)c(Cl)cc2[nH]c1=O [6,7-Dichloroquinoxaline-2,3-dione] 1.04

// query: `CNC(=O)[C@H]1O[C@@H](n2cnc3c(NCc4ccc(N)cc4)ncnc32)[C@H](O)[C@@H]1O` 0.995

// query: `CCCCC/C=C\C[C@@H](O)/C=C/c1cccc(C[C@@H](O)CCCCO)n1` 1.05

// query: `O=[N+]([O-])c1ccc(-c2nc(-c3ccc(F)cc3)c(-c3ccncc3)[nH]2)cc1` 0.903

// query: `O=C(CCCCCCC(=O)Nc1ccccc1)NO` 0.569

// query: S=C(S)N1CCCC1 [Ammonium pyrrolidinedithiocarbamate] 0.994

// query: `CCc1cnn2c(NCc3ccc[n+]([O-])c3)cc(N3CCCC[C@H]3CCO)nc12` 0.0409

// query: N/C(=N\C(=O)c1nc(Cl)c(N)nc1N)NCc1ccccc1 [Benzamil hydrochloride] 1.04

// query: O=C(O)c1cc(O)c2ccc(Cl)cc2n1 [7-Chlorokynurenic acid] 0.974

// query: CC(NC(=O)Cc1cc(F)cc(F)c1)C(=O)NC1C(=O)N(C)c2ccccc2-c2ccccc21 (stereo not given) 0.998

// query: `O=C(NCCCNc1nc(Nc2cccc(NC(=O)N3CCCC3)c2)ncc1I)c1cccs1` 0.993

// query: `Cc1[nH]c(/C=C2\C(=O)Nc3ccc(S(=O)(=O)N(C)c4cccc(Cl)c4)cc32)c(C)c1C(=O)N1CCN(C)CC1` 0.986

// query: `Cc1nc(Nc2n[nH]c3c2CN(C(=O)N[C@H](CN(C)C)c2ccccc2)C3(C)C)c2sccc2n1` 0.29
